In this section we review reported EC50 (% of hG-CSF) non-conjugated values for a set of binders.
# measured-on: T1, human G-CSF receptor (human, UniProt Q99062 25-836)
# T1 sequence (looked up): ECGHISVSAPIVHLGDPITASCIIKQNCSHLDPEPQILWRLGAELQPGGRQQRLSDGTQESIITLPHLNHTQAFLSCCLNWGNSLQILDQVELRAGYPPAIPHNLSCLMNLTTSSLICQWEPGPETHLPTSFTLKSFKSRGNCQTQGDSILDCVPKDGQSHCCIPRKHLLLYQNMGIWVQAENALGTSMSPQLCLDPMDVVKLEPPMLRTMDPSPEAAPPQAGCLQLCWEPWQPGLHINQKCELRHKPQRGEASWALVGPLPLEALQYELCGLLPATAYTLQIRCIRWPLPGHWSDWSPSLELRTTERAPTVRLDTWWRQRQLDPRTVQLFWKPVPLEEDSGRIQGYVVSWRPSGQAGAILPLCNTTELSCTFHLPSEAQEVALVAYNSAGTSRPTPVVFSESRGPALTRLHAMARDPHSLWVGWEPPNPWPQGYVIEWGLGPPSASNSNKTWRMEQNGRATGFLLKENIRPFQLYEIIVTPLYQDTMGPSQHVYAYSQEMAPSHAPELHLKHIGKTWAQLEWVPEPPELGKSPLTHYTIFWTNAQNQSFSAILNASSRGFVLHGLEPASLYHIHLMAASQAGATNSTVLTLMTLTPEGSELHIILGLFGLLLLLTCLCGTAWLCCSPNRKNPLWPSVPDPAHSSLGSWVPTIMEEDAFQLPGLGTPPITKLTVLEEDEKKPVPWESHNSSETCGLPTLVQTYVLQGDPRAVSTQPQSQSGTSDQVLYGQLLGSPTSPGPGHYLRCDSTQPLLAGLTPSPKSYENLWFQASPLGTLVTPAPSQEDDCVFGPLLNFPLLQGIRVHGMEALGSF
# method-notes: cell-based or functional assay

Some binders with recorded EC50 (% of hG-CSF) non-conjugated:
- G-CSF variant K16/40R, non-conjugated (ligand) TPLGPASSLPQSFLLRCLEQVRKIQGDGAALQEKLCATYRLCHPEELVLLGHSLGIPWAPLSSCPSQALQLAGCLSQLHSGLFLYQGLLQALEGISPELGPTLDTLQLDVADFATTIWQQMEELGMAPALQPTQGAMPAFASAFQRRAGGVLVASHLQSFLEVSYRVLRHLAQP: 50 % of hG-CSF
- G-CSF variant K16/34/40R Q70K Q120K, non-conjugated (ligand) TPLGPASSLPQSFLLRCLEQVRKIQGDGAALQERLCATYRLCHPEELVLLGHSLGIPWAPLSSCPSQALKLAGCLSQLHSGLFLYQGLLQALEGISPELGPTLDTLQLDVADFATTIWQKMEELGMAPALQPTQGAMPAFASAFQRRAGGVLVASHLQSFLEVSYRVLRHLAQP: 25 % of hG-CSF

# return recorded EC50 (% of hG-CSF) non-conjugated for entry G-CSF variant K16/34/40R Q70K Q120K S142K, non-conjugated (ligand) TPLGPASSLPQSFLLRCLEQVRKIQGDGAALQERLCATYRLCHPEELVLLGHSLGIPWAPLSSCPSQALKLAGCLSQLHSGLFLYQGLLQALEGISPELGPTLDTLQLDVADFATTIWQKMEELGMAPALQPTQGAMPAFAKAFQRRAGGVLVASHLQSFLEVSYRVLRHLAQP
10 % of hG-CSF

// data source = patent US20030118612A1
